# System: DMS 114 small cell lung
# Test Details: NCI tumour cell line growth inhibition, 48 h
Measured Parameter: TGI

For record COC(=O)C1C=CCC2CCCCC21N1CCCC1 (configuration not stated) the listed TGI is > 100 µM

For record `CC(=O)C(=Cc1cn(C)c(=O)n(C)c1=O)C(C)=O` the listed TGI is 227 µM

For record Cc1cc(Cl)ccc1NC(=O)CCCC(=O)C1C/C(=N/O)CC/C1=N\O (configuration not stated) the listed TGI is > 100 µM

For record `N/N=C(/Cc1ccccc1)NNO` the listed TGI is > 100 µM

For record COc1ccccc1NC(=O)C(=O)C(C(=O)c1ccccc1F)C1OC(=O)c2ccccc21 (configuration not stated) the listed TGI is 64.3 µM

For record CC(C)CCCC(C)[C@H]1CCC(C2C[C@@H](O)[C@@H]3CC(O)[C@@H](O)C[C@]3(CO)C2=O)[C@]1(C)CCO (some centres not stated) the listed TGI is 39.7 µM

For record NC(=O)CCC(N=c1c2ccccc2n(O)c2ccccc12)C(=O)O (configuration not stated) the listed TGI is > 100 µM

For record `O=c1c(Cc2ccccc2)c(O)cc2n1CCC2` the listed TGI is > 100 µM

For record `Cc1c(C)c([N+](=O)[O-])c2c(c1N)C(=O)c1ccccc1C2=O` the listed TGI is > 100 µM

For record `CC(C)(C)C#COC(=O)c1ccccc1` the listed TGI is > 100 µM

For record O=C1CC23CCCCCCCCCCC2(C1)CC(=O)C3 (configuration not stated) the listed TGI is 77.6 µM

For record Cc1cc(=O)[nH]c(NNC(C#N)c2cccc([N+](=O)[O-])c2)n1 (configuration not stated) the listed TGI is > 100 µM

====

# Test system: KM12 colon
# Test Details: NCI tumour cell line growth inhibition, 48 h; in the data active means GI50 below about 0.43 µM; inactive means the rest
Outcome (select one): active, inactive

[Q] Could you please tell me the result logged for COc1cc(C2CC(c3ccc(Nc4nc(NCCO)nc(NCCO)n4)cc3)=NN2c2cc(Cl)cc(Cl)c2)cc(OC)c1OC (centres undefined) in this assay?
[A] inactive

[Q] Could you please tell me the result logged for `Cn1c(COC(=O)NCCn2ccnc2)nc2c(N3CCOCC3)nc(-c3ccccc3)nc21` in this assay?
[A] inactive

[Q] Could you please tell me the result logged for CCCCCCCC(=O)OCC/C=C/C1OC1C1OC(=O)/C=C\C=C\C(=O)N(C(C)=O)C(=O)/C=C(/C)CCC2OC2C1OC(=O)NC(C)=O (centres undefined) in this assay?
[A] inactive

[Q] Could you please tell me the result logged for COc1ccc(-c2ccc(C3CC(c4ccccc4)=NN3)o2)c([N+](=O)[O-])c1 (centres undefined) in this assay?
[A] inactive

[Q] Could you please tell me the result logged for `COc1ccc2[nH]c(C(=O)N3CCN(C(=O)OCc4ccc5c(Cl)cc(Cl)c(O)c5n4)CC3)cc2c1` in this assay?
[A] inactive

[Q] Could you please tell me the result logged for COc1cc(N2C(=O)[C@H](Cl)C2c2ccc(SC)cc2)cc(OC)c1OC (some centres undefined) in this assay?
[A] active

[Q] Could you please tell me the result logged for `CSc1nc(Nc2cccc(NC(=O)CCl)c2)c(C#N)c(-c2cccc([N+](=O)[O-])c2)n1` in this assay?
[A] inactive

[Q] Could you please tell me the result logged for `C[C@@H]1C[C@@H]([C@H](O)CC2CC(=O)NC(=O)C2)C(=O)[C@@H](C)C1` in this assay?
[A] active

[Q] Could you please tell me the result logged for `CCOC(=O)Nc1ccc2nc(-c3cscn3)[nH]c2c1` in this assay?
[A] inactive

[Q] Could you please tell me the result logged for `O=c1c(Cc2ccc3c(c2)OCO3)nnc2sc(-c3cc(F)c(Cl)cc3Cl)nn12` in this assay?
[A] inactive

[Q] Could you please tell me the result logged for `O=C(Nc1n[nH]c2cc(-c3cc(F)ccc3F)ccc12)C1CC1` in this assay?
[A] inactive

[Q] Could you please tell me the result logged for `CC(C)C[C@@H](N)[C@@H](O)C(=O)N[C@H](C(=O)N[C@H](C(=O)N[C@@H](CC(=O)O)C(=O)O)C(C)C)C(C)C` in this assay?
[A] inactive

[Q] Could you please tell me the result logged for O=c1[nH]c(C2CCCN2)nc2c1oc1ccc(Cl)cc12 (centres undefined) in this assay?
[A] inactive

[Q] Could you please tell me the result logged for `CC1(C)CC(C)(C)c2cc(NC(=S)Nc3ccc([N+](=O)[O-])cc3)ccc2S1` in this assay?
[A] inactive

[Q] Could you please tell me the result logged for `CN(C)CCC(=O)Nc1ccc(-n2cc(-c3cccc(NC(=S)Nc4cccc(-c5cn(-c6ccc(NC(=O)CCN(C)C)cc6)nn5)c4)c3)nn2)cc1` in this assay?
[A] inactive

[Q] Could you please tell me the result logged for `COc1ccc(-n2c(=S)sc3c(Cl)nc(C)nc32)c(OC)c1` in this assay?
[A] inactive

[Q] Could you please tell me the result logged for `CCOC(=O)NC(=S)N(CC(=O)c1cc(OC)c(OC)c(OC)c1)c1ccc(Cl)cc1` in this assay?
[A] inactive

[Q] Could you please tell me the result logged for `C/C(=N/NC(=S)Nc1ccccc1)c1nc2ccc(Cl)cc2[nH]1` in this assay?
[A] active

[Q] Could you please tell me the result logged for `CN1CCN(C2=NC(=O)/C(=C\c3ccc(N(C)C)cc3)S2)CC1` in this assay?
[A] inactive

====

# Test system: OVCAR-4 ovarian
# Test Details: NCI tumour cell line growth inhibition, 48 h
Measured Parameter: TGI

For record `CN1CCN(C2=NC(=O)/C(=C\c3ccc(N(C)C)cc3)S2)CC1` the listed TGI is > 100 µM

For record `COc1ccc(-n2cc(-c3ccc(OC)c(OC)c3)[nH]c2=O)cc1` the listed TGI is > 100 µM

For record `O=C1Nc2ccccc2/C1=C\c1c(Cl)n(-c2ccccc2)c2ccccc12` the listed TGI is 21.6 µM

For record COC1=CC(c2ccc[nH]2)=N/C1=C\c1[nH]c(C)c(C(=O)CCCCCCCCC(=O)O[C@H]2CC[C@H]3C4CCc5cc(O)ccc5C4CC[C@]23C)c1C (some centres undefined) the listed TGI is > 50 µM

For record CCN1CC2(C)CCC(OC)C34C5CC6CCC(O)(C5C(=O)O6)C(C(O)C23)C14 (centres undefined) the listed TGI is > 100 µM

For record `COc1cc(CCNC2=CC(=O)c3nc[nH]c3C2=O)ccc1O` the listed TGI is 29 µM

For record CC1=NN(C(=O)CC(=O)Nc2cccc(C)c2)C(=O)C1N=Nc1ccc(S(=O)(=O)CCOS(=O)(=O)O)cc1 (centres undefined) the listed TGI is 27 µM

For record `N#Cc1c(NC(=S)Nc2ccc(Cl)cc2)sc2c1CCN(N1CCc3c(sc(NC(=S)Nc4ccc(Cl)cc4)c3C#N)C1)C2` the listed TGI is > 100 µM

For record COc1c2ccoc2nc2c(OC)c(OCC(O)C(C)(C)O)ccc12 (centres undefined) the listed TGI is > 100 µM

====

# Tested on: U251 CNS
# Test Details: NCI tumour cell line growth inhibition, 48 h
Response key: criterion met means TGI >= 10 µM; criterion not met means TGI < 10 µM.

[Q] Confirm if TGI reported for the compound `Nc1cc2c3c(cccc3c1)C(=O)N(CCN1CCCC1)C2=O` is 10 µM or above.
[A] criterion met

[Q] Confirm if TGI reported for the compound `Cc1ccccc1NC(=O)CSc1nnc(-c2ccc(N=Cc3ccc(Cl)cc3)cc2)o1` is 10 µM or above.
[A] criterion met

[Q] Confirm if TGI reported for the compound `COc1cc(CCNC2=CC(=O)c3nc[nH]c3C2=O)ccc1O` is 10 µM or above.
[A] criterion met

[Q] Confirm if TGI reported for the compound `Cc1ccc(/C(=N/Nc2ccc([N+](=O)[O-])cc2)Sc2cc(Cl)c(C)cc2S(N)(=O)=O)cc1` is 10 µM or above.
[A] criterion met

[Q] Confirm if TGI reported for the compound Cn1c(=O)oc2cc(C3CCC(=O)N3Cc3csc(-c4ccccc4)n3)ccc21 (stereo not given) is 10 µM or above.
[A] criterion met

[Q] Confirm if TGI reported for the compound `COc1ccc(-n2c(=S)sc3c(Cl)nc(C)nc32)c(OC)c1` is 10 µM or above.
[A] criterion not met

[Q] Confirm if TGI reported for the compound `O=c1[nH]ccc(CNC23CC4CC(CC(C4)C2)C3)c1O` is 10 µM or above.
[A] criterion met

[Q] Confirm if TGI reported for the compound `CCOC(=O)Nc1ccc2nc(-c3cscn3)[nH]c2c1` is 10 µM or above.
[A] criterion met

[Q] Confirm if TGI reported for the compound `Clc1ccc2c(NCCCCCCNc3ccnc4cc(Cl)ccc34)ccnc2c1` is 10 µM or above.
[A] criterion not met
